- measurement protocol: Cytotoxicity against human HepG2 cells assessed as cell viability at 1 to 300 ug/ml after 24 hrs by MTT assay relative to control
- Type: cell-based
- condition parameters: read-out: Activity
measurement label: viability at 24 h (%)

{"smi": "Cc1c(=O)c(=O)c2c3c[nH]c4c(C)c(=O)c(=O)c(c5c[nH]c1c52)c43", "quantity unit": "%", "reading": 100}
